# Target System: Epidermal growth factor receptor (Homo sapiens, UniProt P00533, L858R/T790M)
# Sequence (P00533 25-1210 T790M/L858R limits assumed): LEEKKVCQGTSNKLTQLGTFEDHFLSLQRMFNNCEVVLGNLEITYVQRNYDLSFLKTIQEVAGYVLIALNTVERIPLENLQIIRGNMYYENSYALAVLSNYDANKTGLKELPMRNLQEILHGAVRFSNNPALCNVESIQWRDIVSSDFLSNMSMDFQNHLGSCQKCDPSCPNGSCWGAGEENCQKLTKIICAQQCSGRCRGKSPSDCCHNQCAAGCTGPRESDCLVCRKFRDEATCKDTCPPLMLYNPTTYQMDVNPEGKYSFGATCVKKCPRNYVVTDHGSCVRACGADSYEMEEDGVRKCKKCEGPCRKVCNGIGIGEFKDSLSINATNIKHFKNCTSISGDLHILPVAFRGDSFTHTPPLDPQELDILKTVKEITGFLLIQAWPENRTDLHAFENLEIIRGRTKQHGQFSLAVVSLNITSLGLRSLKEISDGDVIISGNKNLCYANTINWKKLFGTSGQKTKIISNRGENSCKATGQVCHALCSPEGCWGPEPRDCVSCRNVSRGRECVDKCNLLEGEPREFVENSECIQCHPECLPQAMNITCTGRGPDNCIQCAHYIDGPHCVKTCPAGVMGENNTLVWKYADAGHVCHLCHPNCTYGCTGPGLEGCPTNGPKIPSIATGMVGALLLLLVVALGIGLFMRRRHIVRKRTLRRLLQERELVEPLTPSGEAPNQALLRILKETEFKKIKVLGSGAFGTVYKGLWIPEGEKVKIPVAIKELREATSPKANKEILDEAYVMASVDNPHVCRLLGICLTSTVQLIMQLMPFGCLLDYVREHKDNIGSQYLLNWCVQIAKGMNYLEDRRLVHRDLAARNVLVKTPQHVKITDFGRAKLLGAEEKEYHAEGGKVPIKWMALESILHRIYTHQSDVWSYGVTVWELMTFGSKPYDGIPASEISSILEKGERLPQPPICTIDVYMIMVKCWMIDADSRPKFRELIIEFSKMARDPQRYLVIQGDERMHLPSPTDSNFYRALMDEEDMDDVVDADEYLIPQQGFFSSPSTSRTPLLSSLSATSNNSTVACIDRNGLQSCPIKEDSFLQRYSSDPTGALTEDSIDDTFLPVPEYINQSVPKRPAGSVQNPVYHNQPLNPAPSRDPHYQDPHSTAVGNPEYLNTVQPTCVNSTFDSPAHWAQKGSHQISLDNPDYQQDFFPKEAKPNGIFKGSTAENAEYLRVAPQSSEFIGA
# Assay Remarks: Inhibition of EGFR L858R/T790M mutant (unknown origin) expressed in Sf9 cells by enzyme kinetics assay
Value Kind: pKi
Interpret pKi as the negative base-10 log of the concentration measured in mol/L.

Compound String: C=CC(=O)Nc1cccc(Oc2nc(Nc3n[nH]c4ccccc34)cc(N3CCN(C)CC3)n2)c1
Target System: Epidermal growth factor receptor (Homo sapiens, UniProt P00533, L858R/T790M)
Value Reported: 9.49

Moving on to another molecule below.
// pKi value for C=CC(=O)Nc1cccc(Oc2nc(Nc3cc(C)[nH]n3)cc(N3CCN(C)CC3)n2)c1 : 9.19

---

Target or system Epidermal growth factor receptor (Homo sapiens, UniProt P00533, L858R): recorded pIC50 listed per item.
Interpret pIC50 as the negative base-10 log of the concentration measured in mol/L.

Some compounds with known pIC50 results, for comparison:
Compound String: C=CC(=O)Nc1cc(Nc2cc[nH]n2)nc(-c2ccccc2)n1
Value Kind: pIC50
Value Reported: 6.10
--
Compound String: CCC(=O)Nc1cc(Nc2cc[nH]n2)nc(-c2ccccc2)n1
Value Kind: pIC50
Value Reported: 5.47
--
Compound String: C=CC(=O)Nc1cccc(-c2nc(Nc3cc[nH]n3)c3ccccc3n2)c1
Value Kind: pIC50
Value Reported: 6.30
--
Compound String: C=CC(=O)Nc1ccc(Oc2nc(Nc3cc(C)[nH]n3)cc(N3CCN(C)CC3)n2)cc1
Value Kind: pIC50
Value Reported: 5.74
--
Compound String: C=CC(=O)Nc1cccc(Oc2nccc(Nc3cc(C)[nH]n3)n2)c1
Value Kind: pIC50
Value Reported: 5.74

// pIC50 value for Cc1cc(Nc2cc(N3CCN(C)CC3)nc(Oc3cccc([N+](=O)[O-])c3)n2)n[nH]1 : 5.64

// pIC50 value for Cc1cc(Nc2cc(N3CCN(C)CC3)nc(Oc3ccc(NC(=O)/C=C/C(F)(F)F)cc3)n2)n[nH]1 : 5.68

// pIC50 value for C=CC(=O)Nc1cccc(Oc2nc(Nc3n[nH]c4ccccc34)cc(N3CCN(C(C)=O)CC3)n2)c1 : 6.22

---

# Target System: Epidermal growth factor receptor (Homo sapiens, UniProt P00533, L858R)
# Sequence (P00533 25-1210 L858R limits assumed): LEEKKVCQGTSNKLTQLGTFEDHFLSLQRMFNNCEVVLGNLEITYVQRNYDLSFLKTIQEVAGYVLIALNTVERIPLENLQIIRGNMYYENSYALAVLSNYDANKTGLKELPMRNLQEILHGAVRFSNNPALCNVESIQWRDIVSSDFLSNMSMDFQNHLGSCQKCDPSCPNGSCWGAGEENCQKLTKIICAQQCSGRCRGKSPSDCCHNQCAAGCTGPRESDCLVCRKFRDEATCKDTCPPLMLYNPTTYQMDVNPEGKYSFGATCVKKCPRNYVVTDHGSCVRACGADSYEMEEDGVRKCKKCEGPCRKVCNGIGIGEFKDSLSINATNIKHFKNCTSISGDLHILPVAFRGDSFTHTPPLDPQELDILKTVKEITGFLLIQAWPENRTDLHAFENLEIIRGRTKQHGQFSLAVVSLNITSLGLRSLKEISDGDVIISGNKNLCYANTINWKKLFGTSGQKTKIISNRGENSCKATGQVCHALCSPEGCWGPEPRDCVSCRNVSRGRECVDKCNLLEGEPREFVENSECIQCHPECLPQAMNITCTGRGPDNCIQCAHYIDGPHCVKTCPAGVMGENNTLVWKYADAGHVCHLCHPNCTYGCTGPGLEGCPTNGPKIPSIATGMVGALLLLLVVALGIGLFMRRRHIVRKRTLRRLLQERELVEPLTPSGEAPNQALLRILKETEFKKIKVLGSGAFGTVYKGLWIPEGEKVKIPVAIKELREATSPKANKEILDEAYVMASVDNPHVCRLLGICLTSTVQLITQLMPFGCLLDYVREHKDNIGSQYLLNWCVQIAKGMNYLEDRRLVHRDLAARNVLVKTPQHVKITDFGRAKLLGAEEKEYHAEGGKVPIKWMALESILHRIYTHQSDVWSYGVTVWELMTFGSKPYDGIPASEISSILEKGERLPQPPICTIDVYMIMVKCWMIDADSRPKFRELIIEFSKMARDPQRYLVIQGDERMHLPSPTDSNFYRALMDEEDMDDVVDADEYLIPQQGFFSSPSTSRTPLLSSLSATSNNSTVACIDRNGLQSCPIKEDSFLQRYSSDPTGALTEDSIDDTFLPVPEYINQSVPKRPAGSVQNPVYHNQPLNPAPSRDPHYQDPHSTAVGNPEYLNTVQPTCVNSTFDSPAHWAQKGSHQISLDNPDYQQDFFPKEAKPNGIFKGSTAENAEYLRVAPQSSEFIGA
Value Kind: pIC50
Interpret pIC50 as the negative base-10 log of the concentration measured in mol/L.

Some compounds with known pIC50 results, for comparison:
Compound String: Cc1cc(Nc2cc(N3CCN(C)CC3)nc(Oc3ccc(N)cc3)n2)n[nH]1
pIC50: 5.68
--
Compound String: C=CC(=O)Nc1cccc(Oc2nc(Nc3cc[nH]n3)cc(N3CCN(C)CC3)n2)c1
pIC50: 5.70
--
Compound String: C=CC(=O)Nc1cccc(-c2nccc(Nc3cc(C)[nH]n3)n2)c1
pIC50: 5.55
--
Compound String: CCC(=O)Nc1cccc(Oc2nc(Nc3cc(C)[nH]n3)cc(N3CCN(C)CC3)n2)c1
pIC50: 5.72
--
Compound String: Cc1cc(Nc2cc(N3CCN(C)CC3)nc(Oc3ccc([N+](=O)[O-])cc3)n2)n[nH]1
pIC50: 5.74

Lab entry: Epidermal growth factor receptor (Homo sapiens, UniProt P00533, L858R) assay, compound CN(C)C/C=C/C(=O)Nc1cccc(Oc2nc(Nc3n[nH]c4ccccc34)cc(N3CCN(C)CC3)n2)c1 , pIC50 = 5.44

Lab entry: Epidermal growth factor receptor (Homo sapiens, UniProt P00533, L858R) assay, compound C=CC(=O)Nc1ccccc1Oc1nc(Nc2cc(C)[nH]n2)cc(N2CCN(C)CC2)n1 , pIC50 = 6.22
